We begin with IC50 values for MKK4 (Homo sapiens), as collected from the published literature.

Sure, the documented IC50 for CCCS(=O)(=O)Nc1ccc(F)c(C(=O)c2n[nH]c3ncc(-c4ccc(F)cc4)cc23)c1F is 500 to 1000 nM

Please fill in: IC50 reported for CCCS(=O)(=O)Nc1c(F)ccc(C(=O)c2c[nH]c3ncc(-c4cnc(N5CCC5)nc4)cc23)c1F = < 100 nM

Looking up CCCS(=O)(=O)Nc1c(F)ccc(C(=O)c2c[nH]c3ncc(-c4ccncc4C)cc23)c1F , I found its IC50 recorded as < 100 nM

So, Cc1cc(F)ccc1-c1cnc2[nH]cc(C(=O)c3cccc(NS(C)(=O)=O)c3F)c2c1 ? Its IC50 was 500 to 1000 nM

Lab note: CCCS(=O)(=O)Nc1ccc(F)c(C(=O)c2c[nH]c3ncc(-c4ccc([S+](C)[O-])cc4)cc23)c1F (stereo not drawn) gave IC50 of 100 to 1000 nM

Measured IC50 of CCCS(=N)(=O)Nc1ccc(F)c(C(=O)c2c[nH]c3ncc(-c4ccc(Cl)cc4)cc23)c1F (stereo not drawn) : 1000 to 10000 nM
